The reported measurements were obtained from patent US20100081679A1.

Assign logP to each entry below.
Test: logP determination via retention times, calibrated with unbranched alkan-2-ones
Type: physicochemical
Conditions: HPLC reversed-phase C 18, EEC Directive 79/831 Annex V.A8; method *: 40° C., 0.1% aqueous formic acid and acetonitrile, linear gradient 10% to 95% acetonitrile
Marks after values point to notes of the source that are not given here.

[in] What value of measured logP is listed for CC(=O)CCc1cccc(Nc2ncc(Cl)c(NC3CC3)n2)c1 [compound 841] ?
[out] 1.72*

[in] Can you look up the measured logP of COCC(=O)Nc1cccc(Nc2ncc(Cl)c(NC3CC3)n2)c1 [compound 793] for me?
[out] 1.33*

[in] Item under review: Clc1cnc(Nc2ccccc2)nc1NC1(COc2ccccc2)CC1 [compound 801] . Reported logP?
[out] 2.88*

[in] # logP lookup, item N#CCc1cccc(Nc2ncc(Br)c(NC3CC3)n2)c1 [compound 794]
[out] 1.75*

[in] Recorded logP for CC1COC(=O)N1c1cccc(Nc2ncc(F)c(NC3CC3)n2)c1 (centres unmarked) [compound 802] , please?
[out] 1.18*

[in] State the recorded logP for this entry: CC(C)(O)c1cccc(Nc2ncc(Cl)c(NC3CC3)n2)c1 [compound 784]
[out] 1.47*

[in] Look up logP: CC(O)C(=O)Nc1cccc(Nc2ncc(Cl)c(NC3CC3)n2)c1 (centres unmarked) [compound 856]
[out] 1.49*

[in] Name the reported logP value associated with the molecule CCc1cccc(Nc2ncc(Cl)c(NCC3CC3)n2)c1 [compound 776]
[out] 2.37*

[in] Return reported logP; argument: N#CCc1cccc(Nc2ncc(Cl)c(NCC3CC3)n2)c1 [compound 821]
[out] 1.81*

[in] Which logP value is on record for CC(C)(C)NC(=O)c1cccc(Nc2ncc(Cl)c(NC3CC3)n2)c1 [compound 831] ?
[out] 2.07*

[in] Given the entry O=C1COCCN1c1cccc(Nc2ncc(C(F)(F)F)c(NC3CC3)n2)c1 [compound 790] , report its measured logP.
[out] 1.88*

[in] Name the recorded logP for COC(C)c1cccc(Nc2ncc(Br)c(NC3CC3)n2)c1 (centres unmarked) [compound 805] .
[out] 2.08*

[in] Look at this molecule and give its reported logP. CCCS(=O)(=O)c1cccc(Nc2ncc(Cl)c(NC3CC3)n2)c1 [compound 852]
[out] 2.25*

[in] Look up logP: O=C1OCCN1c1cccc(Nc2ncc(Br)c(NC3CC3)n2)c1 [compound 842]
[out] 1.51*

---

Exercise: for every item that follows, state its recorded logP.
Experiment: logP determination via retention times, calibrated with unbranched alkan-2-ones
Type: physicochemical
Settings: method *: HPLC reversed-phase C 18, temperature 40° C.; mobile phase 0.1% aqueous formic acid and acetonitrile; linear gradient 10% to 95% acetonitrile

[in] # get_value(readout='logP', item= CC(=O)c1cccc(Nc2ncc(F)c(NC3CC3)n2)c1 [compound 591] )
[out] 1.45*

[in] Fill blank: measured logP of the molecule O=C1CCCCN1c1ccc(Nc2ncc(Cl)c(NC3CC3)n2)cc1 [compound 569] is ____.
[out] 1.47*

[in] Any idea what logP was measured for CN(C)S(=O)(=O)c1ccc(Nc2ncc(F)c(NC3CC3)n2)cc1 [compound 578] ?
[out] 1.68*

[in] # logP lookup, item CSc1ccc(Nc2ncc(F)c(NC3CC3)n2)cc1Cl [compound 579]
[out] 2.13*

---

Experiment: logP determination via retention times, calibrated with unbranched alkan-2-ones
Format: physicochemical
Settings: HPLC on reversed-phase C18, method *: 40° C., 0.1% aqueous formic acid and acetonitrile, linear gradient 10% to 95% acetonitrile
Marks after values point to notes of the source that are not given here.
Kindly supply the reported logP values for the records listed here.

[in] # query: logP of entry COC(=O)c1ccc(Nc2ncc(Cl)c(NCC3CC3)n2)cc1Cl
[out] 3.1*

[in] Can you share its logP? I mean this compound: Clc1cnc(Nc2ccccc2-c2ccccc2)nc1NC1CC1
[out] 2.46*

[in] Please report the recorded logP for COc1ccc(Nc2ncc(Br)c(NC3CC3)n2)cc1OC .
[out] 1.53*

[in] May I ask what logP has been recorded for COC(=O)Nc1ccc(Nc2ncc(Cl)c(NC(C)C3CC3)n2)cc1 (stereo not drawn) ?
[out] 1.64*

[in] So what does the record say about logP for Clc1ccc(Nc2ncc(Cl)c(NC3CC3)n2)cc1Cl ?
[out] 3.46*

[in] logP lookup needed for CO/N=C(\C)c1cccc(Nc2ncc(Cl)c(NC3CC3)n2)c1 , thanks.
[out] 2.37*

[in] Please look up its logP: FC(F)Oc1ccccc1Nc1ncc(Cl)c(NC2CC2)n1
[out] 2.36*

[in] What value of logP has been recorded for this entry: CC(=O)c1cc(Nc2ncc(Br)c(NC3CC3)n2)ccc1O
[out] 1.75*

[in] Reported logP for CC(C)(C)NC(=O)Cc1cccc(Nc2ncc(Br)c(NC3CC3)n2)c1 : what is it?
[out] 1.94*

[in] Look at this compound and give its reported logP. Cc1cccc(Nc2ncc(Cl)c(NC3CC3)n2)c1
[out] 1.93*

[in] GET /values?readout=logP&item= COC(=O)c1ccc(Nc2ncc(C(F)(F)F)c(NC3CC3)n2)cc1
[out] 3.21*

[in] # query: logP of entry O=C(O)Cc1cccc(Nc2ncc(Cl)c(NC3CC3)n2)c1
[out] 1.23*

[in] What value of measured logP is listed for Brc1cnc(Nc2ccc3c(c2)OCO3)nc1NC1CC1 ?
[out] 1.66*

[in] Please report the recorded logP for Cc1ccccc1Nc1ncc(Cl)c(NC2CC2)n1 .
[out] 1.61*

[in] Field request: logP | item: Cc1cc(F)ccc1Nc1ncc(Cl)c(NC2CC2)n1
[out] 1.68*

[in] Can you look up the measured logP of CC(=O)N(C)c1ccc(Nc2ncc(C#N)c(NC3CC3)n2)cc1 for me?
[out] 1.69*

[in] Which logP value is on record for N#CCC(=O)c1ccc(Nc2ncc(Br)c(NC3CC3)n2)cc1 ?
[out] 2.16*

[in] Data request, read-out logP, for Oc1cccc(Nc2ncc(Br)c(NC3CC3)n2)c1
[out] 1.39*

---

Assay: logP determination via retention times, calibrated with unbranched alkan-2-ones
Format: physicochemical
Conditions: method *: HPLC reversed-phase C18, 40° C., 0.1% aqueous formic acid and acetonitrile, linear gradient 10% to 95% acetonitrile
Task for the reader: assign each of the following compounds its reported logP.

[in] Data request, read-out logP, for CC(=O)Nc1ccc(Nc2ncc(Cl)c(NC3CC3)n2)cc1.Cc1ccc(S(=O)(=O)O)cc1
[out] 1.02*

[in] Returns the measured logP for the input compound. Input: O=C1CCCN1Cc1ccc(Nc2ncc(Cl)c(NC3CC3)n2)cc1
[out] 1.36*

[in] Fill blank: measured logP of the compound FC(F)(F)Sc1ccc(Nc2ncc(Cl)c(NC3CC3)n2)cc1 is ____.
[out] 3.72*

[in] Returns the measured logP for the input compound. Input: CC(C)C(=O)Nc1cccc(Nc2ncc(Cl)c(NC3CC3)n2)c1
[out] 1.63*

[in] What does the record list as logP for CC(=O)Nc1ccc(Nc2ncc(Br)c(NC3CC3)n2)cc1Cl ?
[out] 1.64*

[in] Dear colleague, I am looking for the recorded logP of the following compound: CNC(=O)Oc1cccc(Nc2ncc(Br)c(NC3CC3)n2)c1
[out] 1.56*

[in] // query logP value for entry CC(C)CSc1cccc(Nc2ncc(Cl)c(NC3CC3)n2)c1
[out] 3.75*

[in] What logP value was documented for this compound, Fc1ccc(Nc2ncc(Cl)c(NC3CC3)n2)cc1 ?
[out] 1.8*

[in] Tell me the measured logP of Clc1cnc(Nc2ccccc2)nc1NC1CC1 [Example 70] , please.
[out] 1.28*

[in] Dear colleague, I am looking for the recorded logP of the following compound: CNC(=O)Oc1cccc(Nc2ncc(Br)c(NCC3CC3)n2)c1
[out] 1.68*

[in] For the compound shown here, CC(C)(C)OC(=O)Nc1ccc(Nc2ncc(Br)c(NC3CC3)n2)cc1 , give the reported logP.
[out] 2.13*

[in] Any idea what logP was measured for CN(C)S(=O)(=O)Cc1cccc(Nc2ncc(Cl)c(NC3CC3)n2)c1 ?
[out] 1.62*

[in] Recorded logP of O=C(c1ccc(Nc2ncc(Cl)c(NC3CC3)n2)cc1)C(F)(F)F , please.
[out] 3.62*

[in] # input compound: COc1cc(Nc2ncc(Cl)c(NC3CC3)n2)cc(OC)c1OC ; wanted: its logP
[out] 1.73*

[in] Give its logP value. Item: CC(=O)c1ccc(Nc2ncc(Br)c(NCC3CC3)n2)cc1
[out] 2.26*

[in] Reported logP for CC(C)(C)C(=O)Nc1cccc(Nc2ncc(Cl)c(NC3CC3)n2)c1 : what is it?
[out] 1.98*

[in] Would you mind telling me what logP value was observed for Cc1cnc(Nc2cccc(Cl)c2)nc1NC1CC1 ?
[out] 1.8*

[in] Given the entry Clc1cccc(Nc2ncc(Cl)c(NC3CC3)n2)c1 , report its measured logP.
[out] 2.7*

[in] Which measured logP value corresponds to O=C1CCC(=O)N1c1cccc(Nc2ncc(Br)c(NC3CC3)n2)c1 ?
[out] 1.38*
